target: human CCR2 (CC-Chemokine Receptor 2) (human, UniProt P41597 1-374); experiment: cell-based or functional assay
Sequence (P41597 whole entry): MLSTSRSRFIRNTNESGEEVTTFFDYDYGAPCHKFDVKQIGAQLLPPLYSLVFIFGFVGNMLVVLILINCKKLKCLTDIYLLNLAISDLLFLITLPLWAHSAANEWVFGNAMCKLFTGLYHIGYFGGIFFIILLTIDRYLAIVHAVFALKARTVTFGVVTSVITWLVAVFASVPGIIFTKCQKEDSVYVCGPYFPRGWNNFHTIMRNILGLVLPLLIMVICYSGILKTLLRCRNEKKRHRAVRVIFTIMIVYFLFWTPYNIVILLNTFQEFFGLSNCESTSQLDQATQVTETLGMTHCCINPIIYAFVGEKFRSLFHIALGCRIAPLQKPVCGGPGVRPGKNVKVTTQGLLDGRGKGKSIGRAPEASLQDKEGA
measurementType: IC50 in chemotaxis assay using human THP-1 cells, ligand MCP-4 (35 nM)
# unit: nM | format: bare number

Q: What value of measured IC50 in chemotaxis assay using human THP-1 cells, ligand MCP-4 (35 nM) is listed for D1-1/45H8L1 (antibody, V domains shown, also called D1H1/45H8L1; D1-1B) VH: QVQLVQSGAEVKKPGASVKVSCKASGYTFTGYYMHWVRQAPGQGLEWMGWINPNSGVTKYAQKFQGRVTMTRDTSTSTVYMELSSLRSEDTAVYYCATGGFGYWGEGTLVTVSS VL: QAVLTQPPSVSKGLRQTATLTCTGNSNNVGNQGAAWLQQHQGQPPKLLSYRNHNRPSGVSERFSPSRSGDTSSLTITGLQPEDEADYYCLAWDSSLRAFVFGTGTKLTVL ?
Result: 0.08

Q: 1B2 (antibody, human IgG1, V domains shown) VH: EVQLVESGAEVKKPGASVKVSCKASGYTFTGYYMNWVRQAPGQGLEWMGWINPNSGGTKYAQKFQGRVTMTSDTSINTAYMELSRLRYDDTAVYYCATGGFQHWGQGTLVTVSS VL: LPVLTQPPSVSKGLRQTATLTCTGNSNNVGNQGAAWLQQHQGQPPKLLSYRNHNRPSGVSERFSPSRSGDTSSLTITGLQPEDEADYYCLAWDSSLRAFVFGTGTKLTVL ?
Result: 0.05

Q: Ok, now 1G11 (antibody, human IgG1, V domains shown) VH: EVQLVESGAEVKKPGASVKVSCKASGYIFTGYYIHWVRQAPGQGLEWMGWINPNNGVTKYAEKFQGRVTMTRDTSITTAYMDLSRLRSDDTAIYYCATGGFEYWGQGTLVTVSS VL: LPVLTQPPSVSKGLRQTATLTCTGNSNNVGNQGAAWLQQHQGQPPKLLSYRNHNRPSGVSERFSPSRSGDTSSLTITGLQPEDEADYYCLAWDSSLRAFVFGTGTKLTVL
Result: 0.06

Q: For D1 (antibody, human IgG1, V domains shown, also called CCR2 D1 IgG; anti-CCR2 D1 antibody) VH: EVQLVQSGAEVKKPGASVKVSCKASGYTFTGYHMHWVRQAPGQGLEWMGWINPNSGVTKYAQKFQGRVTMTRDTSINTAYMELSRLRFDDTDVYYCATGGFGYWGEGTLVTVSS VL: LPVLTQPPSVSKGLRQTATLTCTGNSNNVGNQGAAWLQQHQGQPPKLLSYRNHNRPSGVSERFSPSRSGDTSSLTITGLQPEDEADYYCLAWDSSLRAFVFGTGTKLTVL then?
Result: 0.14

Ref: patent US20130344070A1
